test system: CCRF-CEM; assay: Cytotoxicity against human CEM cells; type: functional, cell-based
Provide the recorded pIC50 for the entries that follow.
# log scale: pIC50 equals minus log10 of the concentration in mol/L

Kindly indicate its recorded pIC50. Item: CN(C)CCOc1ccc(-c2cncc(-c3cc4cc(O)ccc4[nH]3)c2)cc1
4.91

Read the entry CN(C)CCCOc1ccc(-c2cncc(-c3cc4cc(O)ccc4n3CCCN(C)C)c2)cc1 and write its reported pIC50.
4.90

Tell us which pIC50 value is on record for CN(C)CCCOc1ccc(-c2cncc(-c3cc4cc(O)ccc4[nH]3)c2)cc1
5.27

Item CN(C)CCn1c(-c2cncc(-c3cc4cc(O)ccc4n3CCN(C)C)c2)cc2cc(O)ccc21 : provide pIC50
4.83

Entry Oc1ccc(-c2cncc(-c3cc4cc(O)ccc4[nH]3)c2)cc1 needs its pIC50 filled in; supply it.
4.84

Return pIC50 for the following compound: CN(C)CCCn1c(-c2cncc(-c3cc4cc(O)ccc4n3CCCN(C)C)c2)cc2cc(O)ccc21
4.95

Dear colleague, please send me the reported pIC50 for CN(C)CCOc1ccc(-c2cncc(-c3cc4ccccc4[nH]3)c2)cc1 when you can.
5.04

Return pIC50 for the following compound: CN(C)CCOc1ccc(-c2cncc(-c3cc4ccccc4n3CCN(C)C)c2)cc1
5.10

Answer with the recorded pIC50 for the compound listed here: Oc1ccc(-c2cncc(-c3cc4ccccc4[nH]3)c2)cc1
5.33

Give me measured pIC50, please, for this compound: CN(C)CCCOc1ccc(-c2cncc(-c3cc4ccccc4[nH]3)c2)cc1
5.27

For the compound CN(C)CCn1c(-c2cncc(-c3cc4cc(O)ccc4[nH]3)c2)cc2cc(O)ccc21 , report pIC50.
5.24

Please give measured pIC50 of the following entry: CN(C)CCCn1c(-c2cncc(-c3cc4cc(O)ccc4[nH]3)c2)cc2cc(O)ccc21
4.85

Report measured pIC50; entry is Oc1ccc2[nH]c(-c3cncc(-c4cc5cc(O)ccc5[nH]4)c3)cc2c1
5.10

Return pIC50 for the following compound: CN(C)CCCOc1ccc(-c2cncc(-c3cc4ccccc4n3CCCN(C)C)c2)cc1
5.38

Tell me its pIC50 given CN(C)CCOc1ccc(-c2cncc(-c3cc4cc(O)ccc4n3CCN(C)C)c2)cc1 as the entry.
4.50

###

assay: Inhibition of starfish CDK1/cyclin B; set-up: species or system Marthasterias glacialis
For each of the compounds below, state its IC50.

Consider the compound CN(C)CCCn1c(-c2cncc(-c3cc4cc(O)ccc4[nH]3)c2)cc2cc(O)ccc21 . State its measured IC50.
> 10 µM

Fill in reported IC50 for this entry: CN(C)CCn1c(-c2cncc(-c3cc4cc(O)ccc4[nH]3)c2)cc2cc(O)ccc21
> 10 µM

Input CN(C)CCCOc1ccc(-c2cncc(-c3cc4cc(O)ccc4n3CCCN(C)C)c2)cc1 , output reported IC50.
> 10 µM

Check the records and state IC50 for CN(C)CCCOc1ccc(-c2cncc(-c3cc4cc(O)ccc4[nH]3)c2)cc1
1.9 µM

Given the compound Oc1ccc(-c2cncc(-c3cc4ccccc4[nH]3)c2)cc1 , write its reported IC50.
0.7 µM

Supply IC50 value. Item: CN(C)CCOc1ccc(-c2cncc(-c3cc4cc(O)ccc4n3CCN(C)C)c2)cc1
> 10 µM

Supply reported IC50 belonging to this compound: CN(C)CCn1c(-c2cncc(-c3cc4cc(O)ccc4n3CCN(C)C)c2)cc2cc(O)ccc21
> 10 µM

Item CN(C)CCCn1c(-c2cncc(-c3cc4cc(O)ccc4n3CCCN(C)C)c2)cc2cc(O)ccc21 : provide IC50
> 10 µM

Please list IC50 recorded for the compound CN(C)CCOc1ccc(-c2cncc(-c3cc4cc(O)ccc4[nH]3)c2)cc1
3.6 µM

# return recorded IC50 for input CN(C)CCOc1ccc(-c2cncc(-c3cc4ccccc4n3CCN(C)C)c2)cc1
> 10 µM
